Some binders, each annotated with its measured Ki.
# Target of assay: T1, CHIP D134A (human, UniProt Q9UNE7 1-303, D134A)
# T1 construct: CHIP (STUB1) with Asp134 mutated to alanine; also called D134A CHIP
# T1 sequence (looked up): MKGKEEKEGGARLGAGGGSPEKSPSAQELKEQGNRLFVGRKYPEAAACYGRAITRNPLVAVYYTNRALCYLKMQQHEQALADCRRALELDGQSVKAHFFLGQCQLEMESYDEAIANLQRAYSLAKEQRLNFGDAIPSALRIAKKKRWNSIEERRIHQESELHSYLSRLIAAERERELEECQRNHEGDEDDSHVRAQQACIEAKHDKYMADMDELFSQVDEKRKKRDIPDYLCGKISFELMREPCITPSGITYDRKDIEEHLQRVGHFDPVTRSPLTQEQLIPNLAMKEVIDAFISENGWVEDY
# Procedure summary: fluorescence polarisation; competition: CHIP 1.58 µM + fluorescent tracer 20 nM, peptide competitor in three-fold dilutions, 25 mM HEPES pH 7.4, 50 mM KCl, 0.01% Triton X-100, DMSO; Ki calculated from IC50
# Condition description: both partners purified
Non-standard residues stand in square brackets, D forms with d. pS = N[C@@H](COP(=O)(O)O)C(=O)O
Endpoint label: Ki (µM)

INSERT INTO results (binder, measurement_units, reported_result) VALUES
  ('Ac-SSTG[pS]IDMVD-OH (C-terminal 10-mer of tauC3 with a bona fide phosphoserine at the S416 position; numbers count on: the 2N4R-tau splice isoform; also called phosphorylated tauC3 peptide; source: synthetic peptide (Genscript)) [tauC3 pS416 10-mer peptide]', 'µM', 1.84),
  ('Ac-SSTGSIDMVD-OH (C-terminus of tauC3 (tau ending at D421); numbers count on: the 2N4R-tau splice isoform; also called WT tauC3 peptide; WT tauC3; source: synthetic peptide) [tauC3 C-terminal 10-mer peptide Ac-SSTGSIDMVD-OH]', 'µM', 5.57);
